Measured Target: T1, cynomolgus monkey GPRC5D (cynomolgus monkey)
T1 construct: whole, on cells; HEK293T-cynoGPRC5D cells; also called cynoGPRC5D
Method Summary: FACS, HEK293T-cynoGPRC5D cells
pEC50: −log10 of the molar value.
Note to self: values exactly at 8 are 1 (yes). So pEC50 at or above 8 is 1 (yes), below is 0 (no).

ch108C4C12 (antibody, V domains shown) VH: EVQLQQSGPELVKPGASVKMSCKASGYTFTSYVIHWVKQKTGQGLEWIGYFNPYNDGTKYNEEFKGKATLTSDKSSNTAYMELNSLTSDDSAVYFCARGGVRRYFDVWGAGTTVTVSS VL: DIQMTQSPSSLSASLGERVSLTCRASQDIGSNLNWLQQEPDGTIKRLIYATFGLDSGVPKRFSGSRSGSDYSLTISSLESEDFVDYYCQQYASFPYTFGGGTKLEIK    1 (yes)

Query string: Record ch110B4H5 (antibody, V domains shown) VH: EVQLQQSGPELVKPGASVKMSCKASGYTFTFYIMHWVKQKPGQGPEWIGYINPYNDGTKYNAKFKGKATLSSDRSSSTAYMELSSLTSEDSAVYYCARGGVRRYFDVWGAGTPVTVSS VL: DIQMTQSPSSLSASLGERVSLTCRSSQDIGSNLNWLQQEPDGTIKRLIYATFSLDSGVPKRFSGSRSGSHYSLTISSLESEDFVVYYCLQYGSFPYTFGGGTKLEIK ; criterion: pEC50 no lower than 8. Met?
Result string: 1 (yes)

Query string: Is it the case that ATG596 (antibody, V domains shown, Human IgG1; also called benchmark antibody ATG596; positive human IgG1 control antibody) VH: QVQLVQSGAEVKKPGASVKVSCKASGYSFTGYTMNWVRQAPGQGLEWMGLINPYNSDTNYAQKLQGRVTMTTDTSTSTAYMELRSLRSDDTAVYYCARVALRVALDYWGQGTLVTVSS VL: DIQMTQSPSSLSASVGDRVTITCKASQNVATHVGWYQQKPGKAPKRLIYSASYRYSGVPSRFSGSGSGTEFTLTISNLQPEDFATYYCQQYNRYPYTFGQGTKLEIK has pEC50 reaching or exceeding 8?
Result string: 0 (no)
